molecular target: delF508-CFTR (Homo sapiens, UniProt P13569, DEL508-508); construct: endogenous in cells; host or cells: CFBE41o- human CF bronchial epithelial cells (delF508 homozygous); assay: SPQ halide-sensitive fluorescence dye assay for rescue of halide efflux (8-point concentration-response); format: cell-based; settings: CFBE41o- cells, 48 h
Sequence (P13569 with tags, fused parts or gaps DEL508-508): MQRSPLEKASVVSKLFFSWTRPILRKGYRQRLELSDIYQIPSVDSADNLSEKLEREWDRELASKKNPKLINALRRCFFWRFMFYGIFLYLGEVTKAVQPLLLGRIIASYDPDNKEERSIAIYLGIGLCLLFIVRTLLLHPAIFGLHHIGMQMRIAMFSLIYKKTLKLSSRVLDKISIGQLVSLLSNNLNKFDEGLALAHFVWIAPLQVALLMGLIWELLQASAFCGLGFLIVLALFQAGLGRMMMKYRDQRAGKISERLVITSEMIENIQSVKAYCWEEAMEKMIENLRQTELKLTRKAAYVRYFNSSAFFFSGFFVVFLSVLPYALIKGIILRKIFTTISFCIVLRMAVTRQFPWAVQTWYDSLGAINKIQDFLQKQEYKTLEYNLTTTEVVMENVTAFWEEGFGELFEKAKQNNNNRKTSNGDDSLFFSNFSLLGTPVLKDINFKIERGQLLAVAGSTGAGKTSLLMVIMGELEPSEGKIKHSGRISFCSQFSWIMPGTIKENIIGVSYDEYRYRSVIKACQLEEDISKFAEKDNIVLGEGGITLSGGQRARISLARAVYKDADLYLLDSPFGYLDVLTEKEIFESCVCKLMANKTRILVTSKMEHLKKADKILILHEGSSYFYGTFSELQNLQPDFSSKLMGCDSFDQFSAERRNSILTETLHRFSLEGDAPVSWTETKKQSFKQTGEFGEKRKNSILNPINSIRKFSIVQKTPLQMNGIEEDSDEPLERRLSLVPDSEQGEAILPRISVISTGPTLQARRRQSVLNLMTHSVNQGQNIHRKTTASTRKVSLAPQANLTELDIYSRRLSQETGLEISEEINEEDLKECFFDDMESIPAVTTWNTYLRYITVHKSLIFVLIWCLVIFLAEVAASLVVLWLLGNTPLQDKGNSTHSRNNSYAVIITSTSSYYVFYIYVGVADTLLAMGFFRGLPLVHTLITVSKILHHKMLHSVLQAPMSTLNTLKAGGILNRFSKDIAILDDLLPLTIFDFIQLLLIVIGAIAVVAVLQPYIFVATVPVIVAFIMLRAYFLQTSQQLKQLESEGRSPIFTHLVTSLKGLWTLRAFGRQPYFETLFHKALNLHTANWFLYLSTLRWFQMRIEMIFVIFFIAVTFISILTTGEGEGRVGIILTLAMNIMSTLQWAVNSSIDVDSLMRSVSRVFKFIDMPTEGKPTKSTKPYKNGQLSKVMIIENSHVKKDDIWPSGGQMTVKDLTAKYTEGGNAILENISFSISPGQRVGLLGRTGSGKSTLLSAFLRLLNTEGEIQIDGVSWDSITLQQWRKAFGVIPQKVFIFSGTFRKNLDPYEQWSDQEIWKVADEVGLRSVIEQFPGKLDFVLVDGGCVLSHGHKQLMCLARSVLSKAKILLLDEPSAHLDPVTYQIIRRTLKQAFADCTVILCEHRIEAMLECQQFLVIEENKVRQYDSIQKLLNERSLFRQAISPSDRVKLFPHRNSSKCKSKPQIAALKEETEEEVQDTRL
Reported Metric: ΔSPQ (difference between maximum and minimum SPQ values) (RFU)

Reference set (5 entries):
CCCN1N=C(C)Cn2c1nc1c2c(=O)n(CCC)c(=O)n1C	4602
COc1ccc(N2CCN(Cc3nc4c(c(=O)n(C)c(=O)n4C)n3C(C)C)CC2)cc1	2069
C=CCn1c(C)cn2c3c(=O)n(Cc4ccccc4C)c(=O)n(C)c3nc12	6996
Cc1c(C)n2c3c(=O)n(CCCO)c(=O)n(C)c3nc2n1Cc1ccco1	7294
CCn1c(=O)c2c(nc3n(-c4ccccc4OC)c(C)c(C)n23)n(C)c1=O	6949

[1] CCn1c(=O)c2c(nc3n2CCN3Cc2ccco2)n(C)c1=O
[2] C/C=C/Cn1c(=O)c2c(nc3n(-c4ccccc4O)c(C)c(C)n23)n(C)c1=O
[3] CCCn1c(C)cn2c3c(=O)n(Cc4cccc(C)c4)c(=O)n(C)c3nc12
[4] C=CCN1N=C(C)C(C)n2c1nc1c2c(=O)n(CCCC)c(=O)n1C (stereo not shown)
[5] C=C(C)CN1N=C(C)C(C)n2c1nc1c2c(=O)n(C/C=C/C)c(=O)n1C (stereo not shown)
Put the items in order so that reported ΔSPQ (difference between maximum and minimum SPQ values) rises from first to last. Sort the labels as requested; that list is your answer.
2, 1, 3, 5, 4
(2: 2058 RFU, 1: 3397 RFU, 3: 5227 RFU, 5: 7505 RFU, 4: 10773 RFU)

[a] CCn1c(=O)c2c(nc3oc(C(C)(C)C)cn32)n(C)c1=O
[b] C=C(C)CN1N=C(C)Cn2c1nc1c2c(=O)n(C/C=C/C)c(=O)n1C
Which has the higher ΔSPQ (difference between maximum and minimum SPQ values), a or b ? When you have decided, please share the label of that item.
b
(b: 10602 RFU, a: 3935 RFU)

[a] CCn1c(=O)c2c(nc3n(-c4ccccc4C)c(C)c(C)n23)n(C)c1=O
[b] C=CCn1c(=O)c2c(nc3n2CC(C(C)(C)C)=NN3CC)n(C)c1=O
Lab note: check whether a or b has the lower measured ΔSPQ (difference between maximum and minimum SPQ values). I would appreciate it if you answered with the label of your choice.
a
(a: 4000 RFU, b: 9200 RFU)

---

Target: delF508-CFTR (Homo sapiens, UniProt P13569, DEL508-508)
Construct: endogenous in cells; host or cells: CFBE41o- human CF bronchial epithelial cells (delF508 homozygous)
Experiment: SPQ halide-sensitive fluorescence dye assay for rescue of halide efflux (8-point concentration-response)
Format: cell-based
Settings: CFBE41o- cells, 48 h; read-out: SPQ EC50
Protocol: The method of profiling can include detecting the rescue of halide efflux from a cell. The step of detecting a rescue of halide efflux from the cell can be monitored using the halide quenched dye 6-methoxy-N-(3-sulfopropyl)-quinolinium (SPQ, Molecular Probes Inc., Eugene, Oreg.). In this method, cells are treated with a compound as described herein for a period of time (e.g., 48 hours). The rescue or correction of halide efflux is then detected using the SPQ assay with the halide dye. […]
pEC50: −log10 of the molar value.
Reported Metric: pEC50

Record excerpt, results attached:
CCCn1c(=O)c2c(nc3n(Cc4ccco4)c(C)c(C)n23)n(C)c1=O	5.48
Cc1c(C)n2c3c(=O)n(CCCO)c(=O)n(C)c3nc2n1CCc1ccccc1	5.48
C=CCn1c(=O)c2c(nc3n2CC(C(C)(C)C)=NN3CC)n(C)c1=O	5.10
CCCn1c(=O)c2c(nc3n(-c4ccccc4O)c(C)c(C)n23)n(C)c1=O	5.15
CCn1c(=O)c2c(nc3n(-c4ccccc4)c(C)c(C)n23)n(C)c1=O	5.40
CCCn1c(=O)c2c(nc3n(-c4ccccc4OC)c(C)c(C)n23)n(C)c1=O	5.06
CCn1c(=O)c2c(nc3n(-c4ccccc4OC)c(C)c(C)n23)n(C)c1=O	4.98
CCc1ccc(N2CC(C)Cn3c2nc2c3c(=O)[nH]c(=O)n2C)cc1 (stereo not shown)	5.01
C=CCn1c(C)cn2c3c(=O)n(Cc4cccc(C)c4)c(=O)n(C)c3nc12	5.03

[a] CCC(C)n1c(C)c(C)n2c3c(=O)n(CC)c(=O)n(C)c3nc12 (stereo not shown)
[b] CCCCn1c(=O)c2c(nc3n(CCO)c(C)cn23)n(C)c1=O
Could you tell me which of a and b has the lower pEC50 reading? Answer by stating the label of the chosen item.
a
(a: 5.08, b: 5.52)

Numbers sourced from patent US9546176B2.
